# log10 TGI values compiled below
System: SNB-75 CNS
test-method-notes: NCI tumour cell line growth inhibition, 48 h
readout-type: log10 TGI (log10 of the value in µM)

[[record]]
compound = "CCN(CC)Cc1cc(Nc2c3ccccc3nc3cc(Cl)ccc23)ccc1O"
observed_measurement = 0.47

[[record]]
compound = "CC(=O)c1sc2[n+](c1C)C(=O)/C(=C\\c1ccccc1Cl)S2"
observed_measurement = 1.82

[[record]]
compound = "O=C(C=C=Nc1ccccc1)C(=O)N=C=Cc1ccccc1"
observed_measurement = 1.27

[[record]]
compound = "CC[C@@]1(O)C(=O)OCc2c1cc1n(c2=O)Cc2c-1nc1ccccc1c2/C=N\\NC(=O)C(N)Cc1c[nH]c2ccccc12 (some centres not stated)"
observed_measurement = 0.26

[[record]]
compound = "O=S(=O)(O)SCCNCCCCCC1CCCCC1"
observed_measurement = 1.21

[[record]]
compound = "O=C1C(c2c(O)[nH]c3ccc(S(=O)(=O)NCCO)cc23)=Nc2ccccc21"
observed_measurement = 0.87

[[record]]
compound = "CN(C)CCCNC(=O)c1cn2c(ccc3sc4ccccc4c(=O)c32)n1"
observed_measurement = 1.48

[[record]]
compound = "O=C1C=Cc2ncccc2C1=O"
observed_measurement = 1.70

[[record]]
compound = "c1cc2c(cc1C1=NCCN1)c1cc(C3=NCCN3)ccc1n2CC1CCCCC1"
observed_measurement = 1.49

[[record]]
compound = "[CH3][Sn]1([CH3])[O]CC(COc2cc(Cl)c(Cl)cc2Cl)[O]1 (configuration not stated)"
observed_measurement = 1.84

[[record]]
compound = "O=C1N(c2ccccc2)C(=S)/C(=C/c2ccc(Cl)cc2)N1c1ccc(Cl)cc1"
observed_measurement = 1.75

[[record]]
compound = "COc1ccc(NC(=O)C2C(=O)N(c3ccc(OC)cc3)C(=O)/C2=N\\NC(N)=O)cc1 (configuration not stated)"
observed_measurement = 1.69

[[record]]
compound = "O=C(/C=C/c1ccco1)c1ccc(Nc2nc(Nc3ccc(F)cc3)nc(Nc3ccc(F)cc3)n2)cc1"
observed_measurement = 1.96

[[record]]
compound = "C=C(C)[C@@H]1CC[C@]2(C(=O)NC(C)=O)CC[C@]3(C)[C@H](CC[C@@H]4[C@@]5(C)CCCNC(C)(C)[C@@H]5CC[C@]43C)[C@@H]12"
observed_measurement = 0.45

